Molecular target: Tobacco CGS (Nicotiana tabacum)
Sequence (Q9ZPL5 79-540): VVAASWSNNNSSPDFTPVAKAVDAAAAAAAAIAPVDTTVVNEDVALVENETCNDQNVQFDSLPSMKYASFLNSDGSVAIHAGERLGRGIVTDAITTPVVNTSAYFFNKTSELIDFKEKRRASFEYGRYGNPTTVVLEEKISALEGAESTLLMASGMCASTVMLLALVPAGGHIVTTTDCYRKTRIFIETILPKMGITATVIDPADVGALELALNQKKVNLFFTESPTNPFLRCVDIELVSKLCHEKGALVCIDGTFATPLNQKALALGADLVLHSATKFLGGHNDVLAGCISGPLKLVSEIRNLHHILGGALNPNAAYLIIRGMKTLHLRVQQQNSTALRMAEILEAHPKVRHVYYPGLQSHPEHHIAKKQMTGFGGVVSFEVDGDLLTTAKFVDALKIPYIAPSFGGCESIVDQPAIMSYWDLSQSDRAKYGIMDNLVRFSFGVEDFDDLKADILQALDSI
Test: Micro Scale Thermophoresis (MST) direct binding to CGS
Parameters: 6xHIS (N, cleaved yes); GB1 solubility tag (N, cleaved yes); made in house; host or cells: E. coli BL21
Conditions: score 0-5; binding to labelled Tobacco CGS
observed-property: MST Tobacco (0-5)
Give only the figure.

INSERT INTO assay_data (compound, observed_value) VALUES
  ('Cc1cc(=O)[nH]c(-c2cccc(NC(=O)c3ccccc3OC(F)F)c2)n1', 3),
  ('CCc1noc(-c2cccc(NC(=O)c3cccc(OC)c3)c2)n1', 2),
  ('O=C(O)C1CN(C(=O)c2cc(-c3cccnc3)on2)c2ccccc21 (centres unmarked)', 3),
  ('Cc1cc(O)nc(C(=O)Nc2cccc(-c3nc(C)cc(O)n3)c2)c1', 4);

Now consider the entry below.
Item under review: `Cc1cc(=O)[nH]c(-c2cccc(NC(=O)c3ccc(O)cc3F)c2)n1` . Reported MST Tobacco (0-5)? 3

Data credit: patent US11639345B2
